Provenance of the data: patent US20120225060A1

Biological target: T1, recombinant human IL-6R-extracellular domain (ECD) (human, UniProt P08887 20-365)
T1 construct: extracellular domain; also called IL-6R-ECD
T1 sequence (looked up): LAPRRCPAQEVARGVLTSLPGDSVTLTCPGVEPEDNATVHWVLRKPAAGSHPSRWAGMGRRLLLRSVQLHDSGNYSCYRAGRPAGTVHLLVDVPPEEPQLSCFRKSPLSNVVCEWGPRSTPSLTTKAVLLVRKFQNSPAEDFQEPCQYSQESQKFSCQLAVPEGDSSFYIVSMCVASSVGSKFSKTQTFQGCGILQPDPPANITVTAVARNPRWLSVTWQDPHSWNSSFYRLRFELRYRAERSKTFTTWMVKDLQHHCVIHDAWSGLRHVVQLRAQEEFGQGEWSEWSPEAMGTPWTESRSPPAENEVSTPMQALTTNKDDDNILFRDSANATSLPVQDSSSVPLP
Assay: SPR
testReadout: pKd
Lab note — pKd values are minus log10 of concentrations in M.

Reported pKd of clone 5 rabbit anti-IL-6R antibody (antibody, V domains shown) VH: QSLEESGGRLVTPGTPLTLTCTVSGIDLSRYWMSWVRQAPGKGLEWIGMISGGNTWYASWAKGRFTISKTSTTVDLKITSPTTEDTATYFCARGIDTGIATTFNLWGPGTLVTVSS VL: AQVLTQTPSSVSAAVGGTVTISCQSSQSVYNNNRLSWFQQKPGQPPKLLIYYASTLASGVPSRFKGSGSGTQFTLTISDLECDDAATYYCQGYYSGVINVFGGGTEVVVK : 9.28
